# measuredOn: Programmed cell death protein 1/Programmed cell death 1 ligand 1 (Homo sapiens, UniProt Q15116+Q9NZQ7)
# Sequence (Q15116 whole entry, the tested form may be a part): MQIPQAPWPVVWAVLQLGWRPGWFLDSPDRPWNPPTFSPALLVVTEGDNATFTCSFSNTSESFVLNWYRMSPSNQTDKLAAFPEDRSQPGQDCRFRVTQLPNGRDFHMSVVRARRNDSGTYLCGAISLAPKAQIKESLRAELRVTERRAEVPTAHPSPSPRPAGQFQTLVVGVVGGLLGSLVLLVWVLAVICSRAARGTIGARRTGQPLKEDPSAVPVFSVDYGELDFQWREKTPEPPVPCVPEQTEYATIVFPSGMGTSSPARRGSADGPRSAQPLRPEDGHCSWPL
# Sequence (Q9NZQ7 whole entry, the tested form may be a part): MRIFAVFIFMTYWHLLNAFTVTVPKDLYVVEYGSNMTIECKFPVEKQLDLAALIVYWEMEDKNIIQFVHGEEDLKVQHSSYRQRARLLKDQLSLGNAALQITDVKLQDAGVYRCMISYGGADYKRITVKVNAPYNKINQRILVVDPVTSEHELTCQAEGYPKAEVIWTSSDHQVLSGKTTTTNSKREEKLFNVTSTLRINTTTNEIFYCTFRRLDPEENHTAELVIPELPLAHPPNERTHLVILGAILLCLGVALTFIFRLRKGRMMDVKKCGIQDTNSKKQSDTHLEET
# methodNotes: PD-1/PD-L1 & CTLA/CD80 Biochemical Protein-Protein Interaction Assay: Compounds were tested in biochemical protein-protein interaction assays to determine if they can specifically block the interaction between the extracellular domains of PD-1/PD-L1 or CTLA/CD80. Binding of the protein pairs is measured using a bead based Amplified Luminescent Proximity Homogeneous Assay (ALPHA) platform. […] Final protein concentration in the assays were 0.3 nM (His tagged PD-L1), 2.5 nM (biotinylated Fc-PD-1), 1 nM (His tagged CTLA4) and 1 nM (biotinylated CD80).
Give IC50 for every item shown.

Example results:
# testSmiles, measuredMetric, endpointResult
measured = [
    ("COc1nc(-c2cccc(-c3cccc4c3CC[C@@H]4Oc3nc(OCc4cncc(C#N)c4)c(CN4CC[C@H](C(=O)O)C4)cc3Cl)c2Cl)ccc1CNC[C@@H]1CCC(=O)N1", "IC50", "≤ 64 pM"),
    ("COc1nc(-c2cccc(-c3cccc4c3CC[C@@H]4Oc3nc(OC)c(CN4CC[C@H](C(=O)NS(C)(=O)=O)C4)cc3Cl)c2Cl)ccc1CNC[C@@H]1CCC(=O)N1", "IC50", "≤ 64 pM"),
    ("COc1nc(-c2cccc(-c3cccc4c3CC[C@@H]4Oc3nc(OCC#N)c(CN4CC5(C(=O)O)CCC4CC5)cc3Cl)c2Cl)ccc1CNC[C@@H]1CCC(=O)N1", "IC50", "≤ 64 pM"),
    ("COc1nc(-c2cccc(-c3cccc4c3CC[C@@H]4Oc3nc(OC)c(CN4CC(C(=O)O)C4)cc3Cl)c2Cl)ccc1CN1CC(C)(O)C1", "IC50", "≤ 64 pM"),
    ("COc1nc(-c2cccc(-c3cccc4c3CC[C@@H]4Oc3nc(OC)c(CN4CC(C(=O)NS(C)(=O)=O)C4)cc3Cl)c2Cl)ccc1CN1CC(C)(O)C1", "IC50", "88 pM"),
]

Can you give me IC50 for all of these, one by one?
1. COc1nc(-c2cccc(-c3cccc4c3CC[C@@H]4Oc3nc(OC)c(CN4CCC[C@H]4C(=O)O)cc3Cl)c2Cl)ccc1CNC[C@@H]1CCC(=O)N1
2. CCOC(=O)C1CN(Cc2cc(Cl)c(O[C@H]3CCc4c(-c5cccc(-c6ccc(CNC[C@@H]7CCC(=O)N7)c(OC)n6)c5Cl)cccc43)nc2OC)C1
3. COc1nc(-c2cccc(-c3cccc4c3CC[C@@H]4Oc3nc(OC)c(CN4CCC[C@@H]4C(=O)O)cc3Cl)c2Cl)ccc1CNC[C@@H]1CCC(=O)N1

1. ≤ 64 pM
2. 1990 pM
3. ≤ 64 pM

Can you give me IC50 for all of these, one by one?
1. COc1nc(-c2cccc(-c3cccc4c3CC[C@@H]4Oc3nc(OC)c(CNC4(C(=O)O)CCC4)cc3Cl)c2Cl)ccc1CNC[C@@H]1CCC(=O)N1
2. COc1nc(-c2cccc(-c3cccc4c3CC[C@@H]4Oc3nc(OC)c(CN4CCC[C@@]4(C)C(=O)O)cc3Cl)c2Cl)ccc1CNC[C@@H]1CCC(=O)N1

["≤ 64 pM", "≤ 64 pM"]

Can you give me IC50 for all of these, one by one?
1. CCOc1nc(O[C@H]2CCc3c(-c4cccc(-c5ccc(CNC[C@@H]6CCC(=O)N6)c(OC)n5)c4Cl)cccc32)c(Cl)cc1CN1CC2(C(=O)O)CCC1CC2
2. CCS(=O)(=O)NC(=O)[C@@H]1CCN(Cc2cc(Cl)c(O[C@H]3CCc4c(-c5cccc(-c6ccc(CNC[C@@H]7CCC(=O)N7)c(OC)n6)c5Cl)cccc43)nc2OC)C1

1. ≤ 64 pM
2. 117 pM
